Please respond with reported pIC50 for every item in the list.
- Target or test system: PRMT5/MEP50 (Homo sapiens, UniProt O14744)
- Construct: Flag-PRMT5
- Sequence (O14744 with tags, fused parts or gaps): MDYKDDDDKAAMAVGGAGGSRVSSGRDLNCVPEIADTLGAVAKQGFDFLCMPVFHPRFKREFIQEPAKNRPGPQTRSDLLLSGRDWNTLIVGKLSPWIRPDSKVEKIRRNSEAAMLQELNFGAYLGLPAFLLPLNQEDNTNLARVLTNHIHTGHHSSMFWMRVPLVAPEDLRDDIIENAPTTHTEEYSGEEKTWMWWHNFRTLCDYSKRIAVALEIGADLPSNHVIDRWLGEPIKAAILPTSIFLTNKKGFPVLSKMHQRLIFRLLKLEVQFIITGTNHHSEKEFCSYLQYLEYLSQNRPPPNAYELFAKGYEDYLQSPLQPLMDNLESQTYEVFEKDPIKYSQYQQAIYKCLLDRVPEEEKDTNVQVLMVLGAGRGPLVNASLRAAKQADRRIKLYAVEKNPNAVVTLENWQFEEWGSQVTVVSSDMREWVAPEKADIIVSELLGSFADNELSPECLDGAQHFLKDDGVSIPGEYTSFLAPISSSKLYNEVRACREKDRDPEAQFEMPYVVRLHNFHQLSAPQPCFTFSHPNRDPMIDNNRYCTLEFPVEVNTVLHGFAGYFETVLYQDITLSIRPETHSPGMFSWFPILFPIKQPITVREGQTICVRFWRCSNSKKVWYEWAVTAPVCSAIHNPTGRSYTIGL
- Sequence (Q9BQA1 with tags, fused parts or gaps partner limits assumed): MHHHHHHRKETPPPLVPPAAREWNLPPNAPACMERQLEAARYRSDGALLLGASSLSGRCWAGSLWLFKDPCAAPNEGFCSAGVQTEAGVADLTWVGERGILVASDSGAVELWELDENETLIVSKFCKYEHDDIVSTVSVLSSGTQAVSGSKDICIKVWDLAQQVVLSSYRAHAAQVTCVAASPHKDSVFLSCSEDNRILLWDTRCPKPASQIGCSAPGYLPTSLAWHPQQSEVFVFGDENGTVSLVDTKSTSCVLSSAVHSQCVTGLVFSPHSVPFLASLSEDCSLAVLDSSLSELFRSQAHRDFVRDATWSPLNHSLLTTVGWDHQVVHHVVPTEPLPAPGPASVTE
- Method summary: PRMT5 Biochemical Assay (PRMT5/MEP50 enzyme assay on peptide substrate, 3H-SAM Flashplate)
- Applied conditions: PRMT5/MEP50 4 nM, 3H-SAM 75 nM, peptide 40 nM, 30 min preincubation at 25 degrees Celsius
pIC50: −log10 of the molar value.

The following compounds have reported results that may help.
{"Compound": "Cn1cc2c(n1)CCN(C[C@@H](O)COc1cccc(-c3ccc4ncn(C)c4c3)c1)C2", "pIC50": "< 4.30"}
{"Compound": "CC(=O)N1CC(Nc2cc(C(=O)NC[C@H](O)CN3CCc4scc(C)c4C3)ncn2)C1", "pIC50": "> 7.00"}
{"Compound": "Cn1cnc2c1CCN(C[C@@H](O)CNC(=O)c1cc(NC3COC3)ncn1)C2", "pIC50": "< 5.00"}
{"Compound": "CC(=O)N1CCC(Nc2cc(C(=O)NC[C@H](O)CN3CCc4ccncc4C3)ncn2)CC1", "pIC50": "5.00 to 6.00"}
{"Compound": "OC(COc1cccc(CNC2CCCC2)c1)CN1CCc2ccncc2C1 (centres unmarked)", "pIC50": "< 4.30"}
{"Compound": "Cn1ncc2c1CCN(C[C@@H](O)COc1cccc(-c3ccc4ncn(C)c4c3)c1)C2", "pIC50": "< 4.30"}
{"Compound": "CC(=O)N1CCC(Nc2cc(C(=O)NC[C@H](O)CN3CCc4[nH]nc(-c5ccccc5)c4C3)ncn2)CC1", "pIC50": "< 5.00"}

[ask] Entry "CC(=O)N1CC(Nc2cc(C(=O)NC[C@H](O)CN3CCc4c(ncn4C)C3)ncn2)C1" has what pIC50?
[reply] < 5.00
